Target: human δ-opioid receptor (OPRD1) (Homo sapiens, UniProt P41143)
Sequence (P41143 whole entry): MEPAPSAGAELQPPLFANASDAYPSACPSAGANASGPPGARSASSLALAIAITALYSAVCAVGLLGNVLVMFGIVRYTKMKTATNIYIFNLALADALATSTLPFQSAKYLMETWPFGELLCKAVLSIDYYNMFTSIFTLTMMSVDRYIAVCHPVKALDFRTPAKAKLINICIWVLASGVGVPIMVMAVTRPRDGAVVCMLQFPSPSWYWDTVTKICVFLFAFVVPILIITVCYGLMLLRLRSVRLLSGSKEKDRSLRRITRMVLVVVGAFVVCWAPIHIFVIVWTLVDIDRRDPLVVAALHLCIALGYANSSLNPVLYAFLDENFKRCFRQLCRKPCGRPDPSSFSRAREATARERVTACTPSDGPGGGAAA
Experiment: Forskolin-induced cAMP accumulation assay, DOR agonist mode
Conditions: CHO-K1, read-out: DOR Agonist %Emax ± SEM
Hi there, I'd appreciate the recorded Emax for every entry that follows.
Give bare numbers, in %.

Worked cases, Emax given:
• CC1C2Cc3ccc(O)cc3C1(C)CCN2CCc1ccccc1 (stereo not drawn) = 85
• C=C1c2ccc(O)cc2[C@@]2(C)CCN(CCc3ccccc3)[C@@H]1[C@H]2C [(+)-38] = 92
• CC1C2Cc3ccc(O)cc3C1(C)CCN2CCc1ccccc1Br (stereo not drawn) = 89

Your task in this section: give Emax for each listed record.
1. CC1C2Cc3ccc(O)cc3C1(C)CCN2CCc1ccccc1C(F)(F)F (stereo not drawn)
2. C[C@H]1[C@H]2Cc3ccc(O)cc3[C@]1(C)CCN2CCc1c[nH]c2ccccc12
3. CC1C2Cc3ccc(O)cc3C1(C)CCN2CCc1ccc(Cl)cc1Cl (stereo not drawn)
4. CC1C2Cc3ccc(O)cc3C1(C)CCN2CCc1ccc([N+](=O)[O-])cc1 (stereo not drawn)
5. COc1ccc(CCN2CCC3(C)c4cc(O)ccc4CC2C3C)cc1 (stereo not drawn)
6. CC1C2Cc3ccc(O)cc3C1(C)CCN2CCc1cccc(Cl)c1 (stereo not drawn)

## Output
1: 77; 2: 91; 3: 86; 4: 88; 5: 87; 6: 64

Provide Emax for all items below, preserving their order.
1. CC1C2Cc3ccc(O)cc3C1(C)CCN2CCc1ccc(C(F)(F)F)cc1 (stereo not drawn)
2. Cc1ccc(CCN2CCC3(C)c4cc(O)ccc4CC2C3C)cc1 (stereo not drawn)
3. CC1C2Cc3ccc(O)cc3C1(C)CCN2CCc1ccccc1F (stereo not drawn)
4. C=C1c2ccc(O)cc2[C@]2(C)CCN(CCc3ccccc3)[C@H]1[C@@H]2C [(−)-38]
5. CC1c2ccc(O)cc2[C@]2(C)CCN(CCc3ccccc3)[C@H]1[C@@H]2C (single isomer, unassigned; (-)) [(−)-39]
6. CC1C2Cc3ccc(O)cc3C1(C)CCN2CCc1ccccc1[N+](=O)[O-] (stereo not drawn)
7. CC1C2Cc3ccc(O)cc3C1(C)CCN2CCc1ccc(Cl)cc1 (stereo not drawn)
8. C[C@@H]1[C@@H]2C(O)c3ccc(O)cc3[C@@]1(C)CCN2CCc1ccccc1 (single isomer, unassigned; (+)) [(+)-36]

## Output
72
87
87
89
91
73
89
97

## Input Which Emax reading was recorded for the compound CC1C2Cc3ccc(O)cc3C1(C)CCN2CCc1c(Cl)cccc1Cl (stereo not drawn) ?
## Output 78
